- ASSAY TARGET: human Chemokine like receptor 1 (Homo sapiens, UniProt Q99788)
- Construct: host or cells: U2OS (Tango CMKLR1-bla U2OS)
- Sequence (Q99788 1-373): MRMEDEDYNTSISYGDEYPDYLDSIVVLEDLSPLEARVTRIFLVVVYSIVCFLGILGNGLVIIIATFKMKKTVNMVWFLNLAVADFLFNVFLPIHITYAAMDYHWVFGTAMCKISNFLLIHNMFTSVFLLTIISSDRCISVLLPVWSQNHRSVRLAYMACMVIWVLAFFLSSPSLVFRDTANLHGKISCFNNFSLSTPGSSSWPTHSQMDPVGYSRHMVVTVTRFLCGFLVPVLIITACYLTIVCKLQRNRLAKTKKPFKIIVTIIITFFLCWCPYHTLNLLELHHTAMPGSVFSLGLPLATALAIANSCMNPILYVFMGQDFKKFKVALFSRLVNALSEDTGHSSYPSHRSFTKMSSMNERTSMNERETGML
- TEST NAME: Activation of Tango CMKLR1-bla U2OS cells (beta-lactamase FRET reporter)
- Assay type: cell-based
- RUN CONDITIONS: determination by the method of Effect Embodiment 1; read-out: EC50
Square brackets hold non-standard residues; d marks the D form. Peptide text beside a SMILES is read from it. * marks the point of attachment. PEG8 = NCCOCCOCCOCCOCCOCCOCCOCCOCCC(=O)O; Palmitoyl = CCCCCCCCCCCCCCCC(=O)*; Tic = O=C(O)[C@@H]1Cc2ccccc2CN1; NMeL = CN[C@@H](CC(C)C)C(=O)O; βAla = NCCC(=O)O
QUANTITY MEASURED: pEC50
pEC50 here: minus log base 10 of the concentration, concentration in moles per litre.

Form field - read-out: pEC50; system: human Chemokine like receptor 1 (Homo sapiens, UniProt Q99788); submitted item: CCCCCCCCCCCCCCCC(=O)NCCOCCOCCOCCOCCOCCOCCOCCOCCC(=O)NCCC(=O)NCCC(=O)N[C@H](Cc1ccc(O)cc1)C(=O)N[C@@H](Cc1ccccc1)C(=O)N(C)[C@@H](CC(C)C)C(=O)N1CCC[C@H]1C(=O)N[C@H](CO)C(=O)N[C@@H](CCC(N)=O)C(=O)N[C@@H](Cc1ccccc1)C(=O)N[C@H](C)C(=O)N1Cc2ccccc2C[C@H]1C(=O)N[C@@H](CO)C(=O)O [YW-134] ({Palmitoyl-PEG8-βAla-βAla}-[dY]F[NMeL]P[dS]QF[dA][Tic]S-OH) 9.15

====

- ASSAY TARGET: human Chemokine like receptor 1 (Homo sapiens, UniProt Q99788)
- Construct: host or cells: U2OS (Tango CMKLR1-bla U2OS)
- TEST NAME: Activation of Tango CMKLR1-bla U2OS cells (beta-lactamase FRET reporter)
- Format: cell-based
Square brackets hold non-standard residues; d marks the D form. Peptide text beside a SMILES is read from it. * marks the point of attachment. Phenylacetyl(4-Ph) = O=C(Cc1ccc(-c2ccccc2)cc1)*; Diphenylacetyl = O=C(C(c1ccccc1)c1ccccc1)*; Pro(4,4-F2) = O=C(O)[C@@H]1CC(F)(F)CN1; 2Nal = N[C@@H](Cc1ccc2ccccc2c1)C(=O)O; NMehLeu = CN[C@@H](CCC(C)C)C(=O)O; Tic = O=C(O)[C@@H]1Cc2ccccc2CN1; NMeL = CN[C@@H](CC(C)C)C(=O)O; NMeS = CN[C@@H](CO)C(=O)O; Nle = CCCC[C@H](N)C(=O)O; Thz = O=C(O)[C@@H]1CSCN1
QUANTITY MEASURED: EC50
Note: state the figure and append the unit.

# lookup: EC50 of CCCC[C@H](NC(=O)[C@H](Cc1ccccc1)NC(=O)[C@H](N)Cc1ccc(O)cc1)C(=O)N1CCC[C@H]1C(=O)N[C@H](CO)C(=O)N[C@@H](CCC(N)=O)C(=O)N[C@@H](Cc1ccccc1)C(=O)N[C@H](C)C(=O)N1Cc2ccccc2C[C@H]1C(=O)N[C@@H](CO)C(=O)O [YW-197] (H-[dY]F[Nle]P[dS]QF[dA][Tic]S-OH) 10 nM

# lookup: EC50 of CC(C)C[C@@H](C(=O)N1CSC[C@H]1C(=O)N[C@H](CO)C(=O)N[C@@H](CCC(N)=O)C(=O)N[C@@H](Cc1ccc2ccccc2c1)C(=O)N[C@H](C)C(=O)N1Cc2ccccc2C[C@H]1C(=O)N[C@@H](CO)C(=O)O)N(C)C(=O)[C@H](Cc1ccccc1)NC(=O)[C@H](N)Cc1ccc(O)cc1 [YW-122] (H-[dY]F[NMeL][Thz][dS]Q[2Nal][dA][Tic]S-OH) 0.6 nM

# lookup: EC50 of CC(C)C[C@H](NC(=O)[C@H](Cc1ccccc1)NC(=O)[C@H](N)Cc1ccc(O)cc1)C(=O)N1CCC[C@H]1C(=O)N[C@H](CO)C(=O)N[C@@H](CCC(N)=O)C(=O)N[C@@H](Cc1ccc2ccccc2c1)C(=O)N[C@H](C)C(=O)N1Cc2ccccc2C[C@H]1C(=O)N[C@@H](CO)C(=O)O [YW-118] (H-[dY]FLP[dS]Q[2Nal][dA][Tic]S-OH) 6.9 nM

# lookup: EC50 of CC(C)C[C@H](NC(=O)[C@H](Cc1ccccc1)NC(=O)[C@@H](Cc1ccc(O)cc1)NC(=O)Cc1ccc(-c2ccccc2)cc1)C(=O)N1CCC[C@H]1C(=O)N[C@H](CO)C(=O)N[C@@H](CCC(N)=O)C(=O)N[C@@H](Cc1ccccc1)C(=O)N[C@H](C)C(=O)N1Cc2ccccc2C[C@H]1C(=O)N[C@@H](CO)C(=O)O [YW-77] ({Phenylacetyl(4-Ph)}-[dY]FLP[dS]QF[dA][Tic]S-OH) 53 nM

# lookup: EC50 of CC(C)C[C@@H](C(=O)N1CCC[C@H]1C(=O)N[C@H](CO)C(=O)N[C@@H](CCC(N)=O)C(=O)N[C@@H](Cc1ccc2ccccc2c1)C(=O)N[C@H](C)C(=O)N1Cc2ccccc2C[C@H]1C(=O)N[C@@H](CO)C(=O)O)N(C)C(=O)[C@H](Cc1ccccc1)NC(=O)[C@H](N)Cc1ccc(O)cc1 [YW-164] (H-[dY]F[NMeL]P[dS]Q[2Nal][dA][Tic]S-OH) 1.1 nM

# lookup: EC50 of CC(C)C[C@@H](C(=O)N1CC(F)(F)C[C@H]1C(=O)N[C@H](CO)C(=O)N[C@@H](CCC(N)=O)C(=O)N[C@@H](Cc1ccc2ccccc2c1)C(=O)N[C@H](C)C(=O)N1Cc2ccccc2C[C@H]1C(=O)N(C)[C@@H](CO)C(=O)O)N(C)C(=O)[C@H](Cc1ccccc1)NC(=O)[C@H](N)Cc1ccc(O)cc1 [YW-224] (H-[dY]F[NMeL][Pro(4,4-F2)][dS]Q[2Nal][dA][Tic][NMeS]-OH) 1.3 nM

# lookup: EC50 of CC(C)CC[C@@H](C(=O)N1CCC[C@H]1C(=O)N[C@H](CO)C(=O)N[C@@H](CCC(N)=O)C(=O)N[C@@H](Cc1ccccc1)C(=O)N[C@H](C)C(=O)N1Cc2ccccc2C[C@H]1C(=O)N[C@@H](CO)C(=O)O)N(C)C(=O)[C@H](Cc1ccccc1)NC(=O)[C@H](N)Cc1ccc(O)cc1 [YW-101] (H-[dY]F[NMehLeu]P[dS]QF[dA][Tic]S-OH) 2.9 nM

# lookup: EC50 of CC(C)C[C@H](NC(=O)[C@H](Cc1ccccc1)NC(=O)[C@@H](Cc1ccc(O)cc1)NC(=O)C(c1ccccc1)c1ccccc1)C(=O)N1CCC[C@H]1C(=O)N[C@H](CO)C(=O)N[C@@H](CCC(N)=O)C(=O)N[C@@H](Cc1ccccc1)C(=O)N[C@H](C)C(=O)N1Cc2ccccc2C[C@H]1C(=O)N[C@@H](CO)C(=O)O [YW-78] (Diphenylacetyl-[dY]FLP[dS]QF[dA][Tic]S-OH) 26 nM

The values you see were collected from patent US12129312B2.
